# procedureDetails: ATG_ISRE_CIS: Attagene CIS-FACTORIAL HepG2 Assay for human Interferon Regulatory Factor 1 (IRF1) binding to an Interferon-Stimulated Response Element (ISRE) (AID 2282948)
# conditionNotes: HepG2 ISRE cis-reporter (Attagene), mRNA transcription readout; actives raise or lower the signal
Active and inactive are the calls of the source. How the source made its calls: active means hit-call score of the fitted dose curve at least 0.9, where 1 is the maximum; inactive means score below 0.9.
measuredEndpoint: AC50

# annotated cases, reported AC50 shown
>  <compound>
Clc1cccc(Cl)n1

>  <measuredEndpoint>
AC50

>  <result>
inactive

$$$$
>  <compound>
O=[N+]([O-])c1cc(C(F)(F)F)ccc1Cl

>  <measuredEndpoint>
AC50

>  <result>
inactive

$$$$
>  <compound>
O=C(O)c1cccc(C(F)(F)F)c1

>  <measuredEndpoint>
AC50

>  <result>
inactive

$$$$
>  <compound>
O=C1c2ccccc2C(=O)N1SC1CCCCC1

>  <measuredEndpoint>
AC50

>  <result>
inactive

$$$$
>  <compound>
COc1cc(C=O)ccc1OC(=O)C(C)C

>  <measuredEndpoint>
AC50

>  <result>
inactive

$$$$

# input Endpoint output: AC50 of `CC(=O)Nc1ccc(C)cc1C` . Value?
# output inactive

# input Endpoint output: AC50 of `CNC[C@H](O)c1cccc(O)c1` . Value?
# output inactive

# input Endpoint output: AC50 of `O=C[C@H](O)[C@H](O)[C@H](O)CO` . Value?
# output inactive

----------
# procedureDetails: TOX21_p53_BLA_p4_viability: Viability Assessment in the Tox21 HCT-116 p53 Agonism Beta-lactamase Assay, Phase 4 (AID 2283597);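 further: hits lower the luminescence signal meaning cytotoxicity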
Inconclusive results are not listed. The source made the active and inactive calls. Rule for the calls: active = hit-call score of the fitted dose curve at least 0.9, where 1 is the maximum; inconclusive = response in the unintended direction; inactive = score below 0.9.
Outcome field: choose from active, inactive

>  <molecule>
C=C(C)C(=O)O

>  <group>
inactive

$$$$

# input Record request — test call for `CCCc1c(OCCCOc2ccc(OCC(=O)O)cc2)ccc(C(C)=O)c1O`
# output active

# input Record request — test call for `C=CC(=O)NCOCC(C)C`
# output inactive

----------
# Read-out: Thrombomodulin, THBD (gene 7056)
# procedureDetails: BSK_CASM3C_Thrombomodulin: BioMAP Diversity Plus: CASM3C Assay for Thrombomodulin Biomarker Activity (AID 2283051);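 further: thrombomodulin protein level measured by ELISA 24 h after dosing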
# conditionNotes: primary human coronary artery smooth muscle cells; actives raise or lower the signal
Activity calls are given as the source filed them. Rule for the calls: active = hit-call score of the fitted dose curve at least 0.9, where 1 is the maximum; inactive = score below 0.9.
Outcome field: choose from Y for active, N for inactive

Solved entries (count: 3):
>  <compound>
CCCCCCCCCCCCCCCCCC(=O)OCC(CC)CCCC (configuration not stated)

>  <group>
N

$$$$
>  <compound>
c1ccc2c(c1)c1cccc3ccc4cccc2c4c31

>  <group>
N

$$$$
>  <compound>
CNC[C@H](O)c1cccc(O)c1

>  <group>
N

$$$$

# input Record request — test call for `O=[N+]([O-])c1cc(C(F)(F)F)ccc1Cl`
# output N

# input Record request — test call for `CC(=O)[C@H]1CC[C@H]2[C@@H]3CC=C4C[C@@H](O)CC[C@]4(C)[C@H]3CC[C@]12C`
# output N

# input Record request — test call for `COC(=O)c1ccc(C)cc1`
# output N

# input Record request — test call for `c1ccc2sc(SN(C3CCCCC3)C3CCCCC3)nc2c1`
# output Y

# input Record request — test call for `CCCCCCCCCC=O`
# output N

----------
# procedureDetails: ATG_Sox_CIS: Attagene CIS-FACTORIAL HepG2 Assay for human SRY-box transcription factor (SOX) (AID 2282960)
# conditionNotes: HepG2 Attagene cis-factorial SOX reporter, mRNA; actives raise or lower the signal
# Procedure: ATG_CIS is a cell-based, multiplexed-readout assay that uses HepG2, a human liver cell line, with measurements taken at 24 hours after chemical dosing in a 24-well plate.ATG_Sox_CIS is one of 52 assay component(s) measured or calculated from the ATG_CIS assay. […] This assay endpoint, ATG_Sox_CIS, was analyzed with bidirectional fitting relative to DMSO as the negative control and baseline of activity. […]
Activity calls are given as the source filed them. The calls were made as follows: active = hit-call score of the fitted dose curve at least 0.9, where 1 is the maximum; inactive = score below 0.9.
Outcome field: choose from TRUE = active, FALSE = inactive

Solved entries (count: 6):
>  <molecule>
c1cc(C(c2ccc(OCC3CO3)cc2)c2ccc(OCC3CO3)cc2)ccc1OCC1CO1 (configuration not stated)

>  <group>
TRUE

$$$$
>  <molecule>
C=CCOC(=O)CCC1CCCCC1

>  <group>
FALSE

$$$$
>  <molecule>
CC1=CCC(O)(C(C)C)CC1 (configuration not stated)

>  <group>
FALSE

$$$$
>  <molecule>
CCn1c2ccccc2c2cc(N)ccc21

>  <group>
FALSE

$$$$
>  <molecule>
C=C(C)C(=O)OCc1ccccc1

>  <group>
FALSE

$$$$
>  <molecule>
C=O

>  <group>
FALSE

$$$$

Next:
# input Record request — test call for `O=C(O)c1cn(-c2ccc(F)cc2)c2cc(N3CCNCC3)c(F)cc2c1=O`
# output FALSE
